The measurements presented in this section are drawn from paper PMC3608651.

Target: HLA-A*30:02 (Homo sapiens, UniProt P04439, D101N/D140H/D185E/E176R/F33S/G80R/H175R/K168Q/Q94H/R138E/R41S/V100E)
Type: binding
Settings: time points 0-8 h
value-kind: O-rate A*30:02 (t1/2) (h)
Answers are plain numbers, in h.

{"columns": ["substance", "value-units", "meas-value"],
 "data": [
  ["GT HSWEYWG", "h", 2.2],
  ["LVRAYHSMS [Rv0288_65–73m1]", "h", 0.9],
  ["AMLDHAGDM [Rv0288_10–18m2]", "h", 0.4],
  ["RAQDDYNGW", "h", 1.2],
  ["NTPAFEWYY", "h", 1.5]
]}

For the 8 substances below, give their O-rate A*30:02 (t1/2) values.
1. AVYLLDGLR
2. LQNLARTIS [Rv3875_69–77]
3. VFNFPPNGT
4. ANNTRLWVY
5. RSSNLKFQD
6. AMGDAGGYK
7. YQSGLSIVM
8. SMAGSSAMI

Result block:
1: 1.2; 2: 2.1; 3: 1.2; 4: 1.9; 5: 1.6; 6: 1.6; 7: 0.4; 8: 1.3

For the 4 substances below, give their O-rate A*30:02 (t1/2) values.
1. HSMSSTHEA [Rv0288_70–78m1]
2. AMKGDLQSS
3. KFQDAYNAA
4. SNLKFQDAY

Result block:
0.9
2
0.7
1.6

###

Target: HLA-A*30:02 (Homo sapiens, UniProt P04439, D101N/D140H/D185E/E176R/F33S/G80R/H175R/K168Q/Q94H/R138E/R41S/V100E)
Type: binding
Details: percent relative the binding of positive control peptide KIQNFRVYY; duplicated experiments; positive binder >40%
value-kind: Bind A*30:02 (%)
Numbers only, in %.

Worked cases, answers included:
{"columns": ["construct-sequence", "meas-value"],
 "data": [
  ["LAAAWGGSG [Rv3875_39-47]", 114],
  ["VQQKWDATA [Rv3875_54–62]", 76],
  ["ALQNLARTI [Rv3875_68–76]", 17],
  ["GVQQKWDAT [Rv3875_53–61]", 78],
  ["QQWNFAGIE [Rv3875_4–12]", 39],
  ["QQKWDATAT [Rv3875_55–63]", 60],
  ["LQNLARTIS [Rv3875_69–77]", 77],
  ["AYQGVQQKW [Rv3875_50–58]", 33]
]}

For the 7 sequences below, give their Bind A*30:02 values.
1. IQGNVTSIH [Rv3875_18–26]
2. SGSEAYQGV [Rv3875_46–54]
3. TATELNNAL [Rv3875_61–69]
4. NLARTISEA [Rv3875_71–79]
5. EAAASAIQG [Rv3875_12–20]
6. ATATELNNA [Rv3875_60–68]
7. LTKLAAAWG [Rv3875_36-44]

Result block:
36
0
106
17
0
67
0

###

Target: HLA-A*30:01 (Homo sapiens, UniProt P04439, D140H/D185E/E176W/F33S/G80R/H175R/K168Q/R138E/R41S)
Format: binding
Conditions: percent relative the binding of positive control peptide […]; duplicated experiments; positive binder >40%
rule met means recorded Bind A*30:01 is 3% or above; rule not met means it is below 3%.

Query block: Entry AVKPTGSAA : is its Bind A*30:01 no less than 3%?
Result block: rule not met

Query block: Entry GGANIPAEF : is its Bind A*30:01 no less than 3%?
Result block: rule not met

Query block: Entry AMKGDLQSS : is its Bind A*30:01 no less than 3%?
Result block: rule met
